B1: OR4K15 (parent)
chain: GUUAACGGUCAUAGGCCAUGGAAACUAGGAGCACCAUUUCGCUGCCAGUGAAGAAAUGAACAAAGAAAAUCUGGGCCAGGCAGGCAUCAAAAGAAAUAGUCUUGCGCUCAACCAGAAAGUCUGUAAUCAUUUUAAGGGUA

Variants of: B1
PROTOCOL: self-cleavage, relative activity (ratio to wild type); higher = more cleavage; in vitro, sequencing; the parent is a self-cleaving ribozyme
Parameter: self-cleavage. Scope: all listed entries.
ENDPOINT LABEL: self-cleavage

[
  {
    "MUTATION CODE": "U2A A68G",
    "OBSERVED VALUE": 0.8
  },
  {
    "MUTATION CODE": "A69C A114G",
    "OBSERVED VALUE": 0.21
  },
  {
    "MUTATION CODE": "C61A",
    "OBSERVED VALUE": 1.82
  },
  {
    "MUTATION CODE": "A82U A116G",
    "OBSERVED VALUE": 0.09
  },
  {
    "MUTATION CODE": "U19A U26C",
    "OBSERVED VALUE": 2.12
  },
  {
    "MUTATION CODE": "C35U A51G",
    "OBSERVED VALUE": 1.06
  },
  {
    "MUTATION CODE": "U19C A118U",
    "OBSERVED VALUE": 0.77
  },
  {
    "MUTATION CODE": "C40U A59G",
    "OBSERVED VALUE": 2.06
  },
  {
    "MUTATION CODE": "A18C A62C",
    "OBSERVED VALUE": 1.25
  },
  {
    "MUTATION CODE": "A22G U139C",
    "OBSERVED VALUE": 1.24
  },
  {
    "MUTATION CODE": "A18U C105U",
    "OBSERVED VALUE": 0.28
  },
  {
    "MUTATION CODE": "A116C U127C",
    "OBSERVED VALUE": 0.03
  },
  {
    "MUTATION CODE": "C10U U131C",
    "OBSERVED VALUE": 0.47
  },
  {
    "MUTATION CODE": "U3A A36U",
    "OBSERVED VALUE": 1.61
  },
  {
    "MUTATION CODE": "U37A A52G",
    "OBSERVED VALUE": 2.37
  },
  {
    "MUTATION CODE": "U49A U87C",
    "OBSERVED VALUE": 0.22
  },
  {
    "MUTATION CODE": "U2C G48U",
    "OBSERVED VALUE": 0.43
  },
  {
    "MUTATION CODE": "A11C U72C",
    "OBSERVED VALUE": 0.13
  },
  {
    "MUTATION CODE": "G14U A116U",
    "OBSERVED VALUE": 0.11
  },
  {
    "MUTATION CODE": "A78G A129U",
    "OBSERVED VALUE": 0.25
  },
  {
    "MUTATION CODE": "A55G U87C",
    "OBSERVED VALUE": 0.64
  },
  {
    "MUTATION CODE": "A27G G48U",
    "OBSERVED VALUE": 0.5
  },
  {
    "MUTATION CODE": "U9C U43C",
    "OBSERVED VALUE": 1.48
  },
  {
    "MUTATION CODE": "A22G",
    "OBSERVED VALUE": 1.09
  },
  {
    "MUTATION CODE": "U9C C88U",
    "OBSERVED VALUE": 1.34
  },
  {
    "MUTATION CODE": "A30U A110G",
    "OBSERVED VALUE": 0.1
  },
  {
    "MUTATION CODE": "A114G U120A",
    "OBSERVED VALUE": 0.2
  },
  {
    "MUTATION CODE": "U26C A30U",
    "OBSERVED VALUE": 1.14
  },
  {
    "MUTATION CODE": "A96G",
    "OBSERVED VALUE": 1.37
  },
  {
    "MUTATION CODE": "G21A G138A",
    "OBSERVED VALUE": 0.84
  },
  {
    "MUTATION CODE": "U108A U139A",
    "OBSERVED VALUE": 0.04
  },
  {
    "MUTATION CODE": "U19C U97C",
    "OBSERVED VALUE": 1.5
  },
  {
    "MUTATION CODE": "A5G U19C",
    "OBSERVED VALUE": 0.96
  },
  {
    "MUTATION CODE": "U9A U131C",
    "OBSERVED VALUE": 0.4
  },
  {
    "MUTATION CODE": "U43A U120G",
    "OBSERVED VALUE": 1.16
  },
  {
    "MUTATION CODE": "U102G A116G",
    "OBSERVED VALUE": 0.62
  },
  {
    "MUTATION CODE": "U26C U108C",
    "OBSERVED VALUE": 0.01
  },
  {
    "MUTATION CODE": "G14A A47G",
    "OBSERVED VALUE": 0.81
  },
  {
    "MUTATION CODE": "U87A A110G",
    "OBSERVED VALUE": 0.15
  },
  {
    "MUTATION CODE": "A24G A27G",
    "OBSERVED VALUE": 0.97
  },
  {
    "MUTATION CODE": "U57C A82G",
    "OBSERVED VALUE": 0.49
  },
  {
    "MUTATION CODE": "A54G A98U",
    "OBSERVED VALUE": 2.61
  },
  {
    "MUTATION CODE": "C32U U70C",
    "OBSERVED VALUE": 0.69
  },
  {
    "MUTATION CODE": "G8A U49C",
    "OBSERVED VALUE": 2.37
  },
  {
    "MUTATION CODE": "A89U A135G",
    "OBSERVED VALUE": 1.53
  },
  {
    "MUTATION CODE": "C6U A94G",
    "OBSERVED VALUE": 1.68
  }
]
